ASSAY NOTES: Drug level in brain of sc dosed rat measured after 60 mins
Type: ADME, organism-based
CONDITION NOTES: read-out: Drug uptake
REPORTED PROPERTY: concentration at 1 h (ng/g)

CHEMICAL SMILES: Cc1nc2c3ccccc3nc(SCc3cn4ccccc4n3)n2n1
OUTPUT UNIT: ng/g
EXPERIMENTAL VALUE: 35

---

MEASURED TARGET: cAMP and cAMP-inhibited cGMP 3',5'-cyclic phosphodiesterase 10A (Homo sapiens, UniProt Q9Y233)
Sequence (Q9Y233 whole entry): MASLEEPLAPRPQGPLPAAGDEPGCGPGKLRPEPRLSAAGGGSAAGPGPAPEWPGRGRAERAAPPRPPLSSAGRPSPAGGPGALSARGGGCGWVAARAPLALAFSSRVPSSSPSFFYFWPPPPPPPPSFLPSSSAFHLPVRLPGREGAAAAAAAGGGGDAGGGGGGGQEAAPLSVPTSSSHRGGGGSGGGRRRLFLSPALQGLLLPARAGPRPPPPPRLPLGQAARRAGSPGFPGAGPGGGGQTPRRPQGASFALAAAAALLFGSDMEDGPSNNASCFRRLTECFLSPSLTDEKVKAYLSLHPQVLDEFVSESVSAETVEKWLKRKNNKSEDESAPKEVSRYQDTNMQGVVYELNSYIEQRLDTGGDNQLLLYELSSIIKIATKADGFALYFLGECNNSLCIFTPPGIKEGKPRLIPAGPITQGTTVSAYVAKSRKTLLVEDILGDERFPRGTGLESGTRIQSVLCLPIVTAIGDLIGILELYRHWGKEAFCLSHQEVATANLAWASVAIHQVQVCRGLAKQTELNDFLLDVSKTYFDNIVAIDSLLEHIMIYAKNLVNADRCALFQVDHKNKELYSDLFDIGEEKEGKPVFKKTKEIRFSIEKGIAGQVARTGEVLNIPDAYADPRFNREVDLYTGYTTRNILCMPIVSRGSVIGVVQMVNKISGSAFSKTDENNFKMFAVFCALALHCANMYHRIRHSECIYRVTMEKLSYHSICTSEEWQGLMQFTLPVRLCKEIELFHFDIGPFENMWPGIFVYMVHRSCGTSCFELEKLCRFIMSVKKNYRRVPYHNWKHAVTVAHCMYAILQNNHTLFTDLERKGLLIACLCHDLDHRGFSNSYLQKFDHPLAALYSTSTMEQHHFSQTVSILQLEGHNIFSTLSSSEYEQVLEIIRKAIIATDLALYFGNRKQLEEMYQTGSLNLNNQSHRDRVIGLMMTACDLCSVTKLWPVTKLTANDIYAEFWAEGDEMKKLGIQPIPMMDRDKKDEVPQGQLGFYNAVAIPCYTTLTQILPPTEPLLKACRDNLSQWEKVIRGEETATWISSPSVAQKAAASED
pIC50: −log10 of the molar value.
Below: a set of entries, each annotated with reported pIC50.
REPORTED PROPERTY: pIC50

CHEMICAL SMILES: Cc1nc2c3ccccc3nc(SCC(=O)c3ccc(Cl)c(Cl)c3)n2n1
BOUND SIGN: <
EXPERIMENTAL VALUE: 5.00
//
CHEMICAL SMILES: Cc1ccc2nc(SCC#N)n3nc(C)nc3c2c1
BOUND SIGN: =
EXPERIMENTAL VALUE: 6.34
//
CHEMICAL SMILES: Cc1nc2c3ccccc3nc(SCc3ccc4ccccc4n3)n2n1
BOUND SIGN: =
EXPERIMENTAL VALUE: 6.80
//
CHEMICAL SMILES: Cc1nc2c3ccccc3nc(SCc3ncc[nH]3)n2n1
BOUND SIGN: =
EXPERIMENTAL VALUE: 6.00
//
CHEMICAL SMILES: N#CCSc1nc2ccccc2c2ncnn12
BOUND SIGN: =
EXPERIMENTAL VALUE: 5.89
//
CHEMICAL SMILES: Cc1nc2c3ccccc3nc(SCC(=O)N3CCOCC3)n2n1
BOUND SIGN: =
EXPERIMENTAL VALUE: 5.89
//
CHEMICAL SMILES: Cc1nc2c3ccccc3nc(SCc3cn4ccsc4n3)n2n1
BOUND SIGN: =
EXPERIMENTAL VALUE: 6.92
//
CHEMICAL SMILES: Cc1nc2c3ccccc3nc(SCc3nc4ccccc4o3)n2n1
BOUND SIGN: =
EXPERIMENTAL VALUE: 6.96
//
CHEMICAL SMILES: COc1ccc(-c2nc3ccccc3c3nc(N)nn23)cc1OC
BOUND SIGN: =
EXPERIMENTAL VALUE: 5.35
//
CHEMICAL SMILES: COc1ccc(-c2cn(C)c(CSc3nc4ccccc4c4nc(C)nn34)n2)cc1
BOUND SIGN: =
EXPERIMENTAL VALUE: 7.19
//
CHEMICAL SMILES: Cc1nc2c3ccccc3nc(SCc3cn4cccnc4n3)n2n1
BOUND SIGN: =
EXPERIMENTAL VALUE: 7.26
//
CHEMICAL SMILES: Cc1nc2c3c(F)cccc3nc(SCC#N)n2n1
BOUND SIGN: =
EXPERIMENTAL VALUE: 5.80

---

ASSAY NOTES: Permeability across MDR1-overexpressing MDCK cells
Assay type: ADME, cell-based, Canis lupus familiaris
CONDITION NOTES: dog, read-out: permeability
We use 40 ×10⁻⁶ cm/s as the dividing line for Papp: on or above the line is satisfied, below is not satisfied.

CHEMICAL SMILES: Cc1nc2c3ccccc3nc(SCc3nc4ccccc4n3C)n2n1
CATEGORY LABEL: not satisfied
//
CHEMICAL SMILES: Cc1nc2c3ccccc3nc(SCc3nc4ccccc4o3)n2n1
CATEGORY LABEL: not satisfied
//
CHEMICAL SMILES: Cc1nc2c3ccccc3nc(SCc3ccc4ccccc4n3)n2n1
CATEGORY LABEL: not satisfied
//
CHEMICAL SMILES: Cc1nc2c3ccccc3nc(SCc3nc4ccccc4[nH]3)n2n1
CATEGORY LABEL: satisfied

---

ASSAY NOTES: Ratio of drug level in brain to plasma of po dosed rat measured after 60 mins
Assay type: ADME, organism-based
CONDITION NOTES: read-out: BPR
REPORTED PROPERTY: Kp at 1 h

CHEMICAL SMILES: Cc1nc2c3ccccc3nc(SCc3nc4ccccc4n3C)n2n1
EXPERIMENTAL VALUE: 1.3
--
CHEMICAL SMILES: Cc1nc2c3ccccc3nc(SCc3nc4ccccc4[nH]3)n2n1
EXPERIMENTAL VALUE: < 0.04
--
CHEMICAL SMILES: Cc1nc2c3ccccc3nc(SCc3ccc4ccccc4n3)n2n1
EXPERIMENTAL VALUE: 0.86
--
CHEMICAL SMILES: Cc1nc2c3ccccc3nc(SCc3cn4cccnc4n3)n2n1
EXPERIMENTAL VALUE: 0.08

---

Below: a set of entries, each annotated with reported concentration at 1 h.
ASSAY NOTES: Drug level in brain of po dosed rat measured after 60 mins
Format: ADME, organism-based
CONDITION NOTES: read-out: Drug uptake
REPORTED PROPERTY: concentration at 1 h (ng/g)

CHEMICAL SMILES: Cc1nc2c3ccccc3nc(SCc3nc4ccccc4[nH]3)n2n1
OUTPUT UNIT: ng/g
BOUND SIGN: <
EXPERIMENTAL VALUE: 25

CHEMICAL SMILES: Cc1nc2c3ccccc3nc(SCc3ccc4ccccc4n3)n2n1
OUTPUT UNIT: ng/g
BOUND SIGN: =
EXPERIMENTAL VALUE: 113

CHEMICAL SMILES: Cc1nc2c3ccccc3nc(SCc3cn4cccnc4n3)n2n1
OUTPUT UNIT: ng/g
BOUND SIGN: =
EXPERIMENTAL VALUE: 118

CHEMICAL SMILES: Cc1nc2c3ccccc3nc(SCc3nc4ccccc4n3C)n2n1
OUTPUT UNIT: ng/g
BOUND SIGN: =
EXPERIMENTAL VALUE: 286

---

ASSAY NOTES: Ratio of drug level in brain to plasma of sc dosed rat measured after 60 mins
Format: ADME, organism-based
CONDITION NOTES: read-out: BPR

CHEMICAL SMILES: Cc1nc2c3ccccc3nc(SCc3cn4ccccc4n3)n2n1
Kp at 1 h: 0.2

---

ASSAY NOTES: Plasma concentration in sc dosed rat measured after 60 mins
Assay type: ADME, organism-based
REPORTED PROPERTY: concentration at 1 h (ng/mL)

CHEMICAL SMILES: Cc1nc2c3ccccc3nc(SCc3cn4ccccc4n3)n2n1
EXPERIMENTAL VALUE: 180

---

ASSAY NOTES: Plasma concentration in po dosed rat measured after 60 mins
Format: ADME, organism-based
Below: a set of entries, each annotated with reported concentration at 1 h.
REPORTED PROPERTY: concentration at 1 h

CHEMICAL SMILES: Cc1nc2c3ccccc3nc(SCc3nc4ccccc4n3C)n2n1
REPORTED PROPERTY: concentration at 1 h
EXPERIMENTAL VALUE: 221 ng/mL
//
CHEMICAL SMILES: Cc1nc2c3ccccc3nc(SCc3cn4cccnc4n3)n2n1
REPORTED PROPERTY: concentration at 1 h
EXPERIMENTAL VALUE: 1490 ng/mL
//
CHEMICAL SMILES: Cc1nc2c3ccccc3nc(SCc3ccc4ccccc4n3)n2n1
REPORTED PROPERTY: concentration at 1 h
EXPERIMENTAL VALUE: 139 ng/mL
//
CHEMICAL SMILES: Cc1nc2c3ccccc3nc(SCc3nc4ccccc4[nH]3)n2n1
REPORTED PROPERTY: concentration at 1 h
EXPERIMENTAL VALUE: 629 ng/mL

Entry source: ChEMBL document CHEMBL1777757
